# ASSAY_SYSTEM: T1, Human Serum Albumin (human, UniProt P02768 25-609)
# T1 construct: also called HSA
# T1 sequence (P02768 25-609 limits assumed): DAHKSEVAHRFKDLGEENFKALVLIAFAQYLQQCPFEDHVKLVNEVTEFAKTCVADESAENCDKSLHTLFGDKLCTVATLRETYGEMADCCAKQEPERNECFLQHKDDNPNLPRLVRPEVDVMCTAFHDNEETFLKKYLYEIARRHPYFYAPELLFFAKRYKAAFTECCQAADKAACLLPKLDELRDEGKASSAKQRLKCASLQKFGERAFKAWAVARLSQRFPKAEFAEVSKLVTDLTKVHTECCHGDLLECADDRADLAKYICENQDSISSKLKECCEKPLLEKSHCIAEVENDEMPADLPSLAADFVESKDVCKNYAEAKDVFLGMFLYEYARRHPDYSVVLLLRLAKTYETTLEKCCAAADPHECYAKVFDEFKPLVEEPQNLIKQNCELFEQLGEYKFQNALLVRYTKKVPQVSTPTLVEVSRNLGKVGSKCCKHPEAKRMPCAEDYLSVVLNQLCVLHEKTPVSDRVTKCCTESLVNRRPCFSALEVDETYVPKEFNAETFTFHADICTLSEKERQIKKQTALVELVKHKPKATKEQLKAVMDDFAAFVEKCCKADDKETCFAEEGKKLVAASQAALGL
# ASSAY_NOTES: SPR Biacore T200, HSA on CM5 chip, ADAPT injected, 1:1 fit
Collected log10(Kd) values appear next to each entry.
Note the log scale: values are log10 of Kd expressed in nM.

Solved entries:
BINDER	log10(Kd)
LIWAKAEAVQELFMYGVSDFYYDLIIKAKTVEGVEALKLHILAALP (designed binder, Single domain of about 6 kDa, made in E. coli, purified on HSA resin) [ADAPT variant TNFα_05]	1.26
LSKAKAQAWHELYYYGVSDFYLSLIDKAKTVEGVEALKLHILAALP (designed binder) [ADAPT variant CRP_23]	1.36
LIWAKASAVRELHRYGVSDFYYELIVKAKTVEGVEALKLHILAALP (designed binder) [ADAPT variant TNFα_09]	0.98
LMWAKAEAAIELVDYGVSDFYQYLISKAKTVEGVEALKLHILAALP (designed binder) [ADAPT variant REN_40]	0.74
LWAAKDDADWELWQYGVSDFYRALIWKAKTVEGVEALKLHILAALP (designed binder, also called ANG_6) [ADAPT variant ANG_06]	0.04
LYVAKDNADWELWQYGVSDFYRSLIWKAKTVEGVEALKLHILAALP (designed binder) [ADAPT variant ANG_16]	0.00

Note to self: log10(Kd) recorded for LWWAKVSAIKELQAYGVSDFYYMLITKAKTVEGVEALKLHILAALP (designed binder) [ADAPT variant MYDGF_08] was 1.08
